- Tested on: MS2 coat protein
- assayInfo: apparent Kd, MS2 coat protein; higher = weaker binding; RNA-MaP array; FMN 200 µM where present
- reportedConditions: ligand present: flavin mononucleotide; designed as: OFF switch for flavin mononucleotide
Reported apparent Kd values for a set of sequences
reportedMetric: apparent Kd

[[record]]
seqtext = "UAUAUACAUGAGGAUCACCCAUGUAAGGAUAUGCAUUAUUAUUAUUAUUAUUAUUAUAGCAGAAGGUACAAUAU"
result = "0.0313 µM"

[[record]]
seqtext = "CGCAAUAUACAGAAGGAGUUAUUGAGAGGUUUACUAGGAUAUGUUCACAUGAGGAUCACCCAUGUCAUAUGGUUUUUUAUUGCG"
result = "0.0114 µM"

[[record]]
seqtext = "CCCGCGAUGUCAGGAUAUAGUCGGAGGUUCAGACUAGAAGGGACAUGAGGAUCACCCAUGUGCGUGAAAAUUUAAAACCUAGGU"
result = "0.191 µM"

[[record]]
seqtext = "GAGCUAUGAGGAUAUGCAUAUAUGCGGUUUCGUGUGGUACUACAUGAGGAUCACCCAUGUAGAAGGCGUGGCAG"
result = "0.0175 µM"

